# STUDY TARGET: Arginase-2, mitochondrial (Homo sapiens)
# TEST METHOD NOTES: in vitro enzyme assay to detect the production of urea directly proportional to the activity of Arginase II
# Assay type: functional
# Set-up: scale not given: in the data most compounds retested in dose-response had high values
# TEST CONTEXT: 33.3 µM
Reported Percent Effect values follow for various molecules
QUANTITY MEASURED: Percent Effect (%)

MOLECULE	STUDY TARGET	RECORDED RESULT
CNC(=O)[C@H]1C[C@H]2OCC[C@H]2N(Cc2cccc3ccccc23)C1	Arginase-2, mitochondrial (Homo sapiens)	-3.23
COCCN1CCC2(CCCN(C(=O)c3cnoc3C)C2)C1=O (centres undefined)	Arginase-2, mitochondrial (Homo sapiens)	-3.19
COCC(C)(O)CNC(=O)COc1ccccc1OC (centres undefined)	Arginase-2, mitochondrial (Homo sapiens)	2.27
O=C(C1CCC1)N1CCN(c2snc3ccccc23)CC1	Arginase-2, mitochondrial (Homo sapiens)	9.25
CCCN1CCN(C(=O)c2scnc2C)CC1	Arginase-2, mitochondrial (Homo sapiens)	0
CCOC(=O)NC(CNC(=O)CCc1ccccn1)CC(C)C (centres undefined)	Arginase-2, mitochondrial (Homo sapiens)	2.73
CC(C)COCc1cncc2c1CCN(Cc1cnn(C)c1)C2	Arginase-2, mitochondrial (Homo sapiens)	-29
CCc1cnc(CN(C(C)=O)C2CCN(CCc3cnn(C)c3)C2)o1 (centres undefined)	Arginase-2, mitochondrial (Homo sapiens)	2.16
Cc1cn2c(n1)CCC(NC(=O)c1ccc(CS(C)(=O)=O)o1)C2 (centres undefined)	Arginase-2, mitochondrial (Homo sapiens)	0.766
COCCn1cc2c(n1)C(CNCc1ccco1)OCC2 (centres undefined)	Arginase-2, mitochondrial (Homo sapiens)	0.833
COCCNS(=O)(=O)c1cccc2c1CN(C(=O)c1ccccc1)CC2	Arginase-2, mitochondrial (Homo sapiens)	-2.21
CCn1ncc2c1C(COCC1CC1)CN(S(=O)(=O)N(C)C)C2 (centres undefined)	Arginase-2, mitochondrial (Homo sapiens)	-0.798
Nc1nccc(N2CCCC(CO)(CCOc3ccccc3)C2)n1 (centres undefined)	Arginase-2, mitochondrial (Homo sapiens)	-13.8
CCN(CC)c1ccc(C(=O)NCc2cccnc2-n2cncn2)cn1	Arginase-2, mitochondrial (Homo sapiens)	18.6
CCc1cnc2c(c1Nc1ccncc1)c(=O)n(C)c(=O)n2C	Arginase-2, mitochondrial (Homo sapiens)	1.94
CC(C)C1CN(C(=O)c2ccc(C(N)=O)cc2)CCS1 (centres undefined)	Arginase-2, mitochondrial (Homo sapiens)	-4.14
Cc1ccc(-c2cc(CNC(=O)N3CCOC(C)C3)on2)cc1 (centres undefined)	Arginase-2, mitochondrial (Homo sapiens)	3.88
Cc1cc(CN2CC[C@H]3C(=O)N(c4ccccc4)CCO[C@H]3C2)no1	Arginase-2, mitochondrial (Homo sapiens)	-2.1
Cc1ccc(NC2CCN(C(=O)CN(C)C3CC3)CC2)nn1	Arginase-2, mitochondrial (Homo sapiens)	0.645

###

Reported Percent Effect values follow for various compounds
# STUDY TARGET: Proteasome subunit beta (Trypanosoma cruzi)
# Sequence (whole entry): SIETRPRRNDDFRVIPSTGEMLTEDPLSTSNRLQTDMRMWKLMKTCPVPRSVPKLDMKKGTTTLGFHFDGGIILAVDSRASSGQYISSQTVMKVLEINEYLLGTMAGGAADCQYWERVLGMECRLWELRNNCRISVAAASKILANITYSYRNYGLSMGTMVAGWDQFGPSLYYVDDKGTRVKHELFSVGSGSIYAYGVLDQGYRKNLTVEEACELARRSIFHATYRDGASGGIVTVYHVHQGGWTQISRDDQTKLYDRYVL
# TEST METHOD NOTES: Trypanosoma cruzi proteasome chymotrypsin-like activity (TcProtChymo) assay.
# Assay type: functional
# Parameters: scale not given: in the data most compounds retested in dose-response had high values
# TEST CONTEXT: 9.37 µM

COMPOUND	Percent Effect (%)
CCOCC1CN(S(C)(=O)=O)Cc2ncn(CC3CC3)c21 (stereo not given)	5.58
O=C(Cn1cnnn1)N1CCCCC1Cn1cccn1 (stereo not given)	0.901
Cc1nc(CN2CCOC(Cn3cncn3)C2)nc2ccccc12 (stereo not given)	9.62
CC(=O)Nc1nc(C(=O)NC(C)c2ccc(F)cc2)cs1 (stereo not given)	11.1
CCCOc1ccc(CNC2CCCc3c2cnn3CC)cc1OC (stereo not given)	5.98
CC(=O)N(C)c1nc(CN2CCOC(Cn3cccn3)C2)cs1 (stereo not given)	15.9
CC(O)CN1CCN(C(=O)c2cccc(CC#N)c2)CC1 (stereo not given)	12.7
O=C(CCC1CCCO1)NCc1ccnc(-n2cccn2)c1 (stereo not given)	5.33
CCOCCCNC(=O)c1cc(C(C)C)nc(N2CCCCCC2)n1	16.3
NC(=O)C1CCN(c2nc3nccc(-c4ccccn4)c3c(=O)[nH]2)CC1	22
Cc1nc(C2CCN(C(=O)c3cccnc3)CC2)c2sccn12	7.8
Cc1ccc(C(C)NC(=O)Cc2c(C)nc3c(c2C)c(=O)[nH]n3C)o1 (stereo not given)	10.7
CCOc1ccnc(N2CCN(C(=O)c3cccc(C#N)c3)CC2)n1	3.47
CC(NC(=O)C1=NN(C)C(=O)CC1)c1ccc(F)cc1F (stereo not given)	20.4
CCc1cnc(CN(C(C)=O)C2CCN(CCc3cccs3)C2)o1 (stereo not given)	21.6
